Give IC50 for every item shown.
test system: Plasmodium falciparum; test: Antimalarial activity against Plasmodium falciparum Dd2 assessed as inhibition of parasitic growth measured after 48 hrs; type: functional, organism-based; conditions: Dd2, 48 h
Only the number, expressed in µM, is required.

Known value: Plasmodium falciparum IC50 of the molecule "COc1ccc(Nc2cc(C)c3cc(NC(=O)c4cc5ccccc5[nH]4)ccc3n2)cc1" equals 0.45

Known value: Plasmodium falciparum IC50 of the molecule "O=C(Nc1ccc(-c2nc3cc(NC(=O)c4ccccc4)ccc3[nH]2)cc1)c1ccccc1" equals 3.3

Known value: Plasmodium falciparum IC50 of the molecule "CCc1cccc(NC(=O)c2ccc3c(=O)n4nc(Nc5cc(C)ccc5C)sc4nc3c2)c1" equals 22.3

====

biological target: Subtilisin-like protease 1 (Plasmodium falciparum, UniProt O61142); experiment: Inhibition of recombinant Plasmodium falciparum SUB1 using SERA4st1F-6R1 as substrate by fluorescence spectrophotometer
*1 amine or outer side, *2 acyl side, *3 side chain or, on linkers, in order; H or OH if unused. Where a SMILES comes first, the peptide text is derived from it. [ ]: non-standard residue; d: D form. The star is where a group is joined. X2 = C[C@H](N[*:1])C(=O)C(F)(F)C(=O)[*:2]; Bn = c1ccc(C*)cc1; CF3 = FC(F)(F)*
Rule: IC50 below 10 µM gives YES. Equal to or above 10 µM gives NO.

Request: Say whether its IC50 is strictly beneath 10 µM. Entry: "CC[C@H](C)[C@H](NC(C)=O)C(=O)N[C@H](C(=O)N[C@@H](C)C(=O)N[C@@H](C)C(=O)C(F)(F)C(=O)O)[C@@H](C)O"
Response: NO

Request: Say whether its IC50 is strictly beneath 10 µM. Entry: "CC(C)[C@H](NC(=O)Cc1ccccc1)C(=O)NCC(=O)N[C@@H](C)C(=O)C(F)(F)C(=O)NCC(=O)O"
Response: YES

Request: Say whether its IC50 is strictly beneath 10 µM. Entry: "Clc1cc(Nc2nc3ccccc3nc2Nc2ccc(Br)c(Cl)c2)ccc1Br"
Response: NO

Request: Say whether its IC50 is strictly beneath 10 µM. Entry: CC[C@H](C)[C@H](NC(C)=O)C(=O)N[C@H](C(=O)NCC(=O)N[C@@H](C)C(=O)C(F)(F)C(=O)NCC(=O)O)C(C)C (Ac-IVG[X2]G-OH)
Response: YES

Request: Say whether its IC50 is strictly beneath 10 µM. Entry: "Nc1cc2nc(Nc3ccc(Br)cc3)c(Nc3ccc(Br)cc3)nc2cc1Cl"
Response: NO

Request: Say whether its IC50 is strictly beneath 10 µM. Entry: CC[C@H](C)[C@H](NC(C)=O)C(=O)N[C@H](C(=O)N[C@@H](C)C(=O)N[C@@H](C)C(=O)C(F)(F)F)[C@@H](C)OCc1ccccc1 (Ac-IT(Bn)AA-CF3)
Response: NO

Request: Say whether its IC50 is strictly beneath 10 µM. Entry: "CS(=O)(=O)Nc1cc2nc(Nc3ccc(Br)cc3)c(Nc3ccc(Br)cc3)nc2cc1Cl"
Response: NO

====

Give IC50 for every item shown.
assay: Inhibition of recombinant Plasmodium vivax SUB1 using SERA4st1F-6R1 as substrate by fluorescence spectrophotometer
*1 amine or outer side, *2 acyl side, *3 side chain or, on linkers, in order; H or OH if unused. Where a SMILES comes first, the peptide text is derived from it. [ ]: non-standard residue; d: D form. X2 = C[C@H](N[*:1])C(=O)C(F)(F)C(=O)[*:2]
Only the number, expressed in µM, is required.

IC50 for CC[C@H](C)[C@H](NC(=O)[C@H](CCCCN)NC(C)=O)C(=O)N[C@H](C(=O)N[C@@H](C)C(=O)N[C@@H](C)C(=O)C(F)(F)C(=O)NCC(=O)O)[C@@H](C)O (Ac-KITA[X2]G-OH) is 2.5

IC50 for CC[C@H](C)[C@H](NC(C)=O)C(=O)N[C@H](C(=O)N[C@@H](C)C(=O)N[C@@H](C)C(=O)C(F)(F)C(=O)NCC(=O)O)[C@@H](C)O (Ac-ITA[X2]G-OH) is 2.2

====

Target: Subtilisin-like protease 1 (Plasmodium falciparum, UniProt O61142)
Sequence (O61142 whole entry): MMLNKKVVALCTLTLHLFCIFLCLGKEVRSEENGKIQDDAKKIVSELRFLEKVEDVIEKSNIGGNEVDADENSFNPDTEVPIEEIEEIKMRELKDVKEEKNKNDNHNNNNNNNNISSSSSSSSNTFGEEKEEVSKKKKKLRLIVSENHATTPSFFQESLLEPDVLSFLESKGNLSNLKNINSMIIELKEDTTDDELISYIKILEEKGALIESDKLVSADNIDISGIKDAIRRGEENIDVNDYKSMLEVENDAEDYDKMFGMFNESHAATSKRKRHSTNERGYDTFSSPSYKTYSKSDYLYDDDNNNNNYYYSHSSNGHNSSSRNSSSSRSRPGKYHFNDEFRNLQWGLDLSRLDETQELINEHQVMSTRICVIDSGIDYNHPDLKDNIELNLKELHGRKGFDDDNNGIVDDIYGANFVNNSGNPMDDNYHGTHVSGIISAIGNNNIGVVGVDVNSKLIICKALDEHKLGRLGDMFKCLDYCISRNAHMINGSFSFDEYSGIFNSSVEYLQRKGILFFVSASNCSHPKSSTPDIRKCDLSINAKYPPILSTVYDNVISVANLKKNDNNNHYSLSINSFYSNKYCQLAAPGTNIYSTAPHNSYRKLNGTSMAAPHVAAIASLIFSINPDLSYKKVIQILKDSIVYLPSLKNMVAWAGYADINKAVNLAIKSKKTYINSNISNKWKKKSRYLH
Assay: Inhibition of Plasmodium falciparum SUB1 in intact schizonts
assay.readout: IC50
Answer with the number, then the unit.

Known value: Subtilisin-like protease 1 (Plasmodium falciparum, UniProt O61142) IC50 of the molecule "O=C(CCCCCNC(=O)CCCC[C@H]1SC[C@H]2NC(=O)N[C@H]21)NCCCCCC(=O)Nc1ccc2c(Cl)c(OCCc3ccccc3)oc(=O)c2c1" equals 18 µM
